# TESTED_SYSTEM: MBP-FoxP3dN (Mus musculus, UniProt Q99JB6 188-423)
# Sequence: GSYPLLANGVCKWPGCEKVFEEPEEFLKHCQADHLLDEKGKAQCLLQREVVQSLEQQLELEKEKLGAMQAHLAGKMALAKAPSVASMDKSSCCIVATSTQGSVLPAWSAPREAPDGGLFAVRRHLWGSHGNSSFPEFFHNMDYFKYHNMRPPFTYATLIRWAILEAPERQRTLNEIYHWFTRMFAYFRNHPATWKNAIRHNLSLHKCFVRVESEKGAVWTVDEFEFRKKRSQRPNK
# PROTOCOL_NOTES: PD-seq (MBP pull-down with sequencing); 20 mM Tris-HCl pH 7.5, 100 mM NaCl, 1.5 mM MgCl2, 0.4 uM protein, 0.1 uM dsDNA library, 30 min, room temperature, amylose pull-down; high values mean tight binding
# TEST_CONTEXT: protein: recombinant; tags: His6-MBP; chain copies: 2; dsDNA, one strand shown
In all, about 16,000 sequences were measured (“rpm ratio (pull-down/input)”: median about 0.5, highest 2% from about 5.5 on). Only a selection was taken, and the highest values are over-represented in it overall.
MEASURED_QUANTITY: binding signal

Q: Supply binding signal measured with MBP-FoxP3dN (Mus musculus, UniProt Q99JB6 188-423) for GATGATTGTTCTCCCAGCTGATGAATTTGCCGCATCGAGTAAACAAATTTTCCTAATCTTTCTGTTCAAGCGCCATCTAC .
A: 1.35 RPM ratio (pull-down/input)

Q: Supply binding signal measured with MBP-FoxP3dN (Mus musculus, UniProt Q99JB6 188-423) for GATGATTGTTCTCCCAGCTGATGAATTGATCAAATCGAGTAAACAAATTTTCCTAATCTTTCTGTTCAAGCGCCATCTAC .
A: 0.304 RPM ratio (pull-down/input)

Q: Supply binding signal measured with MBP-FoxP3dN (Mus musculus, UniProt Q99JB6 188-423) for GATGATTGTTCTCCCAGCTGATGAATTACCGCATTCGAGTAAACAAATTTTCCTAATCTTTCTGTTCAAGCGCCATCTAC .
A: 5.89 RPM ratio (pull-down/input)

Q: Supply binding signal measured with MBP-FoxP3dN (Mus musculus, UniProt Q99JB6 188-423) for GATGATTGTTCTCCCAGCTGATGAATTCCGCCTTTCGAGTAAACAAATTTTCCTAATCTTTCTGTTCAAGCGCCATCTAC .
A: 5.55 RPM ratio (pull-down/input)

Q: Supply binding signal measured with MBP-FoxP3dN (Mus musculus, UniProt Q99JB6 188-423) for GATGATTGTTCTCCCAGCTGATGAATTACCCCATTCGAGTAAACAAATTTTCCTAATCTTTCTGTTCAAGCGCCATCTAC .
A: 0.3 RPM ratio (pull-down/input)

Q: Supply binding signal measured with MBP-FoxP3dN (Mus musculus, UniProt Q99JB6 188-423) for GATGATTGTTCTCCCAGCTGATGAATTAGACAAATCGAGTAAACAAATTTTCCTAATCTTTCTGTTCAAGCGCCATCTAC .
A: 0.417 RPM ratio (pull-down/input)

Q: Supply binding signal measured with MBP-FoxP3dN (Mus musculus, UniProt Q99JB6 188-423) for GATGATTGTTCTCCCAGCTGATGAATTCCGCTGTTCGAGTAAACAAATTTTCCTAATCTTTCTGTTCAAGCGCCATCTAC .
A: 1.28 RPM ratio (pull-down/input)

Attribution: paper PMC12820563
